# System: RPMI-8226 leukemia
# testDescription: NCI-60 one-dose screen, 48 h (100 = growth as untreated, 0 = no growth, -100 = all killed)
# testContext: 10 µM unless noted
Compounds without any hit were thinned out: in the full panel of roughly 83,000, 20% have a hit.
Reported growth is given for each of the following molecules.

molecule: CN1[C@@H](CC(=O)c2ccccc2)CCC[C@H]1CC(=O)c1ccccc1
growth / %: 120
--
molecule: Oc1ccccc1C=NCCN=Cc1ccccc1O.[Fe]
growth / %: 88.6
--
molecule: C=C[Se]CC(=O)/C=C/c1ccccc1
growth / %: 93.2
--
molecule: CC1=C(C)C(=O)O[C@@H]([C@](C)(O)[C@]2(O)CC[C@@]3(O)[C@@H]4C[C@H]5O[C@]56CC=CC(=O)[C@]6(C)[C@H]4CC[C@]23C)C1
growth / %: -19.2
--
molecule: CC(=O)Nc1nc2c(s1)C1=CC[C@H]3[C@@H]4CC[C@H](OC(C)=O)[C@@]4(C)CC[C@@H]3[C@@]1(C)CC2
growth / %: 30.8
--
molecule: CN1C2CCC1[C@@H](COC(=O)c1ccccc1)[C@@H](O)C2 (some centres undefined)
growth / %: 77.7
--
molecule: Cc1cc(N(CCCl)CCCl)ccc1C=Nc1ccc(-c2csc(-c3ccccc3)n2)cc1
growth / %: 77.3
--
molecule: COC(=O)C12C3C4C1C1C2C3C41NC(=O)c1csc([C@@H](C[C@H](C(C)C)N(C)C(=O)[C@@H](NC(=O)[C@H]2CCCCN2C)C2CC2)OC(C)=O)n1 (some centres undefined)
growth / %: 21.7
--
molecule: Cc1nc2ccccc2c(=O)n1-c1ccccc1F
growth / %: 102

----------
# System: HCT-15 colon
# testDescription: NCI-60 one-dose screen, 48 h (100 = growth as untreated, 0 = no growth, -100 = all killed)
# testContext: 10 µM unless noted
# Experimental: Growth inhibition of the HCT-15 human tumor cell line is measured as a screen for anti-cancer activity. Cells are grown in 96 well plates and exposed to the test compound for 48 hours. Compounds are tested at a single concentration, which is 10^-5 M for most compounds. The reported endpoint is percent growth (GI% or GIPRCNT), where numbers from 0 - 100% represent growth inhibition, and numbers from -100% - 0 represent cell death. For example, a value of 40 represents 60% growth inhibition. […]
Compounds without any hit were thinned out: in the full panel of roughly 83,000, 20% have a hit. Active and inactive are the calls of the source. Rule for the calls: active = growth percent below 10; inactive = the rest.

compound: CC(=O)c1cccc(S(=O)(=O)F)c1
growth: 96.3% (inactive)

compound: C[C@]12CCc3sc(Nc4ccc(OC(F)(F)F)cc4)nc3C1=CC[C@@H]1[C@@H]2CC[C@]2(C)C(=O)CC[C@@H]12
growth: 38.3% (inactive)

compound: CCN1C(=O)NC(=O)C(C)(N2C(=O)c3c(F)c(F)c(F)c(F)c3C2=O)C1=O (stereo unspecified)
growth: 5.26% (active)

compound: CN1CCN(c2ccc(Cl)cc2)CC1
growth: 20.1% (inactive)

compound: COc1ccn(C)c(=O)c1C#N
growth: 101% (inactive)

compound: Cc1cc(N(CCCl)CCCl)ccc1C=Nc1ccc(-c2csc(-c3ccccc3)n2)cc1
growth: 103% (inactive)

----------
Collected growth values appear next to each entry.
# Test system: HS 578T breast
# testDescription: NCI-60 one-dose screen, 48 h (100 = growth as untreated, 0 = no growth, -100 = all killed)
# testContext: 10 µM unless noted
The panel holds about 83,000 compounds, 20% with a hit somewhere; the sample as a whole holds those more often. Calls of active or inactive are those of the source. Rule for the calls: active = growth percent below 10; inactive = the rest.
assayReadout: growth

molecule: ClC1OC(Cl)(Cl)C(Cl)(Cl)OC1(Cl)Cl (stereo not drawn)
studyTarget: HS 578T breast
result: 135% (inactive)

molecule: O=C(NC(Cl)=C(Cl)Cl)P(=O)(c1ccccc1)c1ccccc1
studyTarget: HS 578T breast
result: 113% (inactive)

molecule: O=C(O)C(F)F
studyTarget: HS 578T breast
result: 96.2% (inactive)

molecule: O=C(O)c1ccccc1N(CCO)CCCl
studyTarget: HS 578T breast
result: 120% (inactive)

molecule: CCOC(=O)c1ccccc1C(=O)OCC
studyTarget: HS 578T breast
result: 95.5% (inactive)

molecule: Cc1cc(Br)c([N+](=O)[O-])cc1[N+](=O)[O-]
studyTarget: HS 578T breast
result: 105% (inactive)

molecule: N#CC(C#N)=C(C#N)C#N
studyTarget: HS 578T breast
result: 103% (inactive)

molecule: O=[N+]([O-])c1c(Cl)cc(Cl)c([N+](=O)[O-])c1Cl
studyTarget: HS 578T breast
result: 109% (inactive)

molecule: CCOC(=O)C1C(C=C(C)C)C1(C)C (stereo not drawn)
studyTarget: HS 578T breast
result: 115% (inactive)

molecule: C=C1C(=O)OC2CC3(C)OC3C3OC3C3=CC(OC3=O)C12 (stereo not drawn)
studyTarget: HS 578T breast
result: 96.8% (inactive)

molecule: Cc1cc(N(CCCl)CCCl)ccc1C=Nc1ccc(-c2csc(-c3ccccc3)n2)cc1
studyTarget: HS 578T breast
result: 107% (inactive)

molecule: CC[C@H](C)[C@H](NC(=O)[C@H]1CCCCN1C)C(=O)N(C)[C@H](CCc1nc(C(=O)N[C@@H](Cc2ccccc2)C[C@H](C)C(=O)O)cs1)C(C)C
studyTarget: HS 578T breast
result: 27.7% (inactive)

molecule: O=C(CBr)OCCOC(=O)CBr
studyTarget: HS 578T breast
result: 3.4% (active)

molecule: CCN1C(=O)CC(=O)N(CC)C1=S
studyTarget: HS 578T breast
result: 102% (inactive)

molecule: O=C(O)c1cc([N+](=O)[O-])cc([N+](=O)[O-])c1
studyTarget: HS 578T breast
result: 98.1% (inactive)

molecule: Cc1ccccc1-n1c(/C=C\c2ccccn2)nc2ccccc2c1=O
studyTarget: HS 578T breast
result: 44.2% (inactive)

molecule: Cc1cc[n+](CCc2ccccc2)cc1
studyTarget: HS 578T breast
result: 105% (inactive)

molecule: NC(=O)Oc1cc(OC(N)=O)cc(N(CCCl)CCCl)c1
studyTarget: HS 578T breast
result: 107% (inactive)

molecule: C[C@]12CC[C@@H](OC(=O)N(CCCl)N=O)C[C@@H]1CC[C@@H]1[C@@H]2CC[C@]2(C)C(=O)CC[C@@H]12
studyTarget: HS 578T breast
result: 81.6% (inactive)

molecule: CN1C2CCC1[C@@H](COC(=O)c1ccccc1)[C@@H](O)C2 (stereo partly drawn)
studyTarget: HS 578T breast
result: 119% (inactive)

molecule: Nc1ccc(P(=O)(O)O)cc1
studyTarget: HS 578T breast
result: 110% (inactive)

molecule: CC[C@H](C)[C@H](NC(=O)c1ncccn1)C(=O)N(C)[C@H](C[C@@H](OC(C)=O)c1nc(C(=O)N[C@@H](Cc2ccccc2)C[C@H](C)C(=O)OC)cs1)C(C)C
studyTarget: HS 578T breast
result: 18.3% (inactive)

molecule: C[Se]/C=C1/C(=O)N(c2c(Cl)cccc2Cl)c2ccccc21
studyTarget: HS 578T breast
result: 13% (inactive)

----------
# System: MOLT-4 leukemia
# testDescription: NCI-60 one-dose screen, 48 h
# testContext: 10 µM unless noted
The panel holds about 83,000 compounds, 20% with a hit somewhere; the sample as a whole holds those more often. Active and inactive are the calls of the source. The calls were made as follows: active = growth percent below 10; inactive = the rest.
Labels: true = active, false = inactive

molecule: O=S(=O)(c1ccc(O)cc1)c1ccccc1O
cat: false
--
molecule: C#COc1cccc(Nc2ncnc3cc(NC(=O)CF)ccc23)c1
cat: true
--
molecule: CCN1C(=O)NC(=O)C(C)(N2C(=O)c3c(F)c(F)c(F)c(F)c3C2=O)C1=O (stereo not given)
cat: true
--
molecule: CC[C@H](C)[C@H](NC(=O)C12CC(NC)(C1)C2)C(=O)N(C)[C@H](C[C@@H](OC(C)=O)c1nc(C(=O)N[C@@H](Cc2ccccc2)C[C@H](C)C(=O)OC)cs1)C(C)C
cat: true
--
molecule: O=S(OO)c1cc(Cl)c(O)c(Cl)c1 (stereo not given)
cat: false
--
molecule: CC(Oc1ccc(-c2ccccc2)cc1)C(=O)O (stereo not given)
cat: false
--
molecule: CN1CCc2cc3c(cc2C1O)OCO3 (stereo not given)
cat: false
--
molecule: CC[C@H](C)[C@H](NC(=O)[C@H]1CCCCN1C)C(=O)N(C)[C@H](CCc1nc(C(=O)N[C@@H](Cc2ccccc2)C[C@H](C)C(=O)O)cs1)C(C)C
cat: false
--
molecule: N#CC(N)c1ccccc1 (stereo not given)
cat: false
--
molecule: CC(C)CCC1C(=O)NC(=O)NC1=O
cat: false

----------
Below, each entry is listed with its recorded growth.
# Tested on: RPMI-8226 leukemia
# testDescription: NCI-60 one-dose screen, 48 h (100 = growth as untreated, 0 = no growth, -100 = all killed)
# testContext: 10 µM unless noted
This is part of a sample that, as a whole, favours compounds with a hit. Of some 83,000 tested, about 20% had one in any assay.
assayReadout: growth (%)

compound: CCCCCCCCCCCCCCCCCC1OCC(COC(=O)O[C@@H](C(=O)O[C@H]2C[C@@]3(O)[C@@H](OC(=O)c4ccccc4)[C@@H]4[C@]5(OC(C)=O)CO[C@@H]5C[C@H](O)[C@@]4(C)C(=O)[C@H](OC(C)=O)C(=C2C)C3(C)C)[C@@H](NC(=O)c2ccccc2)c2ccccc2)O1 (stereo partly drawn)
assayReadout: growth
valueUnits: %
numericResult: 4.08
--
compound: COc1ccc(O)c2c(=O)c3c(OC)cc4c(c3oc12)[C@@H]1C=CO[C@@H]1O4
assayReadout: growth
valueUnits: %
numericResult: 63.5
--
compound: COC12CC3(C)C(C4=CC(=O)OC4)CCC3(O)C3CCC4=CC(=O)CCC4(CO1)C32 (stereo not drawn)
assayReadout: growth
valueUnits: %
numericResult: 118
